Provenance of the data: patent US9113629B2

Entries annotated with measured pest or weed control at 140 g/ha
System: Key Grass and Sedge Weeds as well as Grass Crops
Assay: Post-emergent Test II herbicidal activity (Table 6)
Type: in vivo
Details: post-emergence, 336 h, ZEAMX: maize, corn (Zea mays), crop, 140 g ai/ha, read-out: Visual Growth Reduction (%) 14 Days After Application, ZEAMX
parameter-measured: pest or weed control at 140 g/ha

> print(dat)
                                chem.smiles                             tested.system                parameter.measured  reported.measurement
1  C#Cc1ccc(-c2nc(N)c(OC)c(C(=O)OC)n2)c(F)c1F  Key Grass and Sedge Weeds as well as Grass Crops  pest or weed control at 140 g/ha              0 to 29%
2    COC(=O)c1nc(-c2cccc(F)c2F)c(F)c(N)c1Cl  Key Grass and Sedge Weeds as well as Grass Crops  pest or weed control at 140 g/ha              0 to 29%
3  COC(=O)c1nc(-c2ccc(OC(F)F)cc2F)c(F)c(N)c1Cl  Key Grass and Sedge Weeds as well as Grass Crops  pest or weed control at 140 g/ha            95 to 100%
4   N#Cc1ccc(-c2nc(C(=O)O)c(Cl)c(N)c2F)cc1F  Key Grass and Sedge Weeds as well as Grass Crops  pest or weed control at 140 g/ha             75 to 84%
5  Nc1c(F)c(-c2ccc(Cl)c(F)c2)nc(C(=O)O)c1Cl  Key Grass and Sedge Weeds as well as Grass Crops  pest or weed control at 140 g/ha            95 to 100%
6  COC(=O)c1nc(-c2ccc(C(F)F)c(F)c2)cc(N)c1Cl  Key Grass and Sedge Weeds as well as Grass Crops  pest or weed control at 140 g/ha             75 to 84%
7  Nc1c(F)c(-c2ccc(I)c(F)c2F)nc(C(=O)O)c1Cl  Key Grass and Sedge Weeds as well as Grass Crops  pest or weed control at 140 g/ha            95 to 100%
8      COC(=O)c1nc(-c2ccc(Br)cc2F)nc(N)c1OC  Key Grass and Sedge Weeds as well as Grass Crops  pest or weed control at 140 g/ha            95 to 100%

----------
Tested on: Key Grass and Sedge Weeds as well as Grass Crops
Test: Post-emergent Test II herbicidal activity (Table 6)
Assay type: in vivo
Settings: post-emergence, 336 h, DIGSA: crabgrass (Digitaria sanguinalis), 140 g ai/ha, read-out: Visual Growth Reduction (%) 14 Days After Application, DIGSA
parameter-measured: pest or weed control at 140 g/ha

> print(dat)
                                 chem.smiles  reported.measurement
 1  COC(=O)c1nc(-c2ccc(C#N)c(F)c2)c(F)c(N)c1Cl             75 to 84%
 2  COC(=O)c1nc(-c2ccc(F)c(F)c2F)c(F)c(N)c1Cl             60 to 74%
 3   C#Cc1ccc(-c2nc(C(=O)OC)c(Cl)c(N)c2F)cc1             85 to 94%
 4   COC(=O)c1nc(-c2ccc(C#N)cc2)c(F)c(N)c1Cl             60 to 74%
 5  C#Cc1ccc(-c2nc(C(=O)O)c(Cl)c(N)c2F)c(F)c1             60 to 74%
 6   C#Cc1ccc(-c2nc(C(=O)O)c(Cl)c(N)c2F)cc1F             45 to 59%
 7  C#Cc1ccc(-c2nc(N)c(OC)c(C(=O)OC)n2)c(F)c1F              0 to 29%
 8       COC(=O)c1nc(-c2ccccc2F)c(F)c(N)c1Cl              0 to 29%
 9      COC(=O)c1nc(-c2ccc(Br)cc2F)nc(N)c1OC             85 to 94%
10  COc1c(N)nc(-c2ccc(C(F)(F)F)c(F)c2F)nc1C(=O)O             85 to 94%
11     COc1c(N)nc(-c2ccc(I)c(F)c2F)nc1C(=O)O             60 to 74%
12  COC(=O)c1nc(-c2ccc(C(F)F)cc2)c(F)c(N)c1Cl             60 to 74%
13  COC(=O)c1nc(-c2ccc([N+](=O)[O-])cc2)c(F)c(N)c1Cl              0 to 29%
14  COC(=O)c1nc(-c2ccc(Br)c(F)c2)c(F)c(N)c1Cl             75 to 84%

----------
Recorded melting point for the following compounds
parameter-measured: melting point

> print(dat)
                                 chem.smiles  parameter.measured  reported.measurement
 1    COc1c(N)nc(-c2cc(F)c(Br)cc2F)nc1C(=O)O       melting point         132 to 133 °C
 2  Cc1c(-c2ccc(OC(F)F)cc2)nc(C(=O)O)c(Cl)c1N       melting point     158.5 to 159.5 °C
 3      COC(=O)c1nc(-c2ccc(Br)cc2F)cc(N)c1Cl       melting point      98.9 to 101.6 °C
 4  COC(=O)c1nc(-c2ccc(Br)c(F)c2)c(C)c(N)c1Cl       melting point         134 to 137 °C
 5   COC(=O)c1nc(-c2cc(F)c(Br)cc2F)cc(N)c1Cl       melting point         174 to 176 °C
 6    COc1c(N)nc(-c2ccc(Br)c(F)c2F)nc1C(=O)O       melting point  126 to 128 °C (dec.)
 7  COc1c(N)nc(-c2cc(F)c(C(F)F)cc2F)nc1C(=O)O       melting point     143.7 to 145.5 °C
 8     Nc1cc(-c2ccc(I)c(F)c2F)nc(C(=O)O)c1Cl       melting point  288 to 293 °C (dec.)
 9    Nc1cc(-c2cc(F)c(Br)cc2F)nc(C(=O)O)c1Cl       melting point         172 to 174 °C
10  C#Cc1ccc(-c2nc(C(=O)OC)c(Cl)c(N)c2C)cc1F       melting point         130 to 132 °C
11  COC(=O)c1nc(-c2cc(F)c(C#N)cc2F)nc(N)c1OC       melting point       165 to 166.5 °C
12   Cc1cc(F)c(-c2cc(N)c(Cl)c(C(=O)O)n2)cc1F       melting point       172.9 to 175 °C
13     Nc1cc(-c2cc(F)c(I)cc2F)nc(C(=O)O)c1Cl       melting point         173 to 175 °C
14           COC(=O)c1nc(-c2ccccc2)nc(N)c1OC       melting point         123 to 124 °C
15  Nc1c(F)c(-c2ccc(C(F)(F)F)c(F)c2F)nc(C(=O)O)c1Cl       melting point           69 to 70 °C
16     Cc1c(-c2ccc(Br)cc2)nc(C(=O)O)c(Cl)c1N       melting point       185.5 to 187 °C
17    COC(=O)c1nc(-c2ccc(I)c(F)c2F)cc(N)c1Cl       melting point         172 to 174 °C
18    COC(=O)c1nc(-c2ccc(Br)cc2)c(C)c(N)c1Cl       melting point         128 to 130 °C
19  Nc1c(F)c(-c2cc(F)c(OC(F)F)cc2F)nc(C(=O)O)c1Cl       melting point         162 to 165 °C
20       COc1c(N)nc(-c2ccc(C#N)cc2)nc1C(=O)O       melting point     185.2 to 186.1 °C
21    C=Cc1c(N)nc(-c2ccc(F)c(F)c2F)nc1C(=O)O       melting point         154 to 157 °C
22  COc1c(N)nc(-c2ccc(OC(F)(F)F)cc2)nc1C(=O)O       melting point       171 to 172.1 °C
23  COC(=O)c1nc(-c2ccc(OC(F)F)cc2)c(Cl)c(N)c1Cl       melting point     102.4 to 103.6 °C
24       Nc1cc(-c2ccc(Br)cc2F)nc(C(=O)O)c1Cl       melting point       186 to 187.3 °C
25     COc1c(N)nc(-c2ccc(I)c(F)c2F)nc1C(=O)O       melting point         119 to 121 °C
26     COc1c(N)nc(-c2cc(F)c(I)cc2F)nc1C(=O)O       melting point         131 to 132 °C
27  Nc1c(F)c(-c2ccc(C(F)(F)F)c(F)c2)nc(C(=O)O)c1Cl       melting point         124 to 126 °C
28    COC(=O)c1nc(-c2ccc(I)cc2F)c(F)c(N)c1Cl       melting point         136 to 138 °C
29      COC(=O)c1nc(-c2ccc(Br)cc2F)nc(N)c1OC       melting point         163 to 165 °C
30  COC(=O)c1nc(-c2ccc(I)c(F)c2F)c(F)c(N)c1Cl       melting point         168 to 170 °C
31  Nc1cc(-c2cc(F)c(C(F)F)cc2F)nc(C(=O)O)c1Cl       melting point     171.8 to 173.9 °C
